Origin of measurements: patent US11072632B2

# TEST DETAILS: Plasma concentration of inhibitor after a single subcutaneous injection
# SETTINGS: male, Sprague-Dawley, in vivo, sc; rat, s.c. 2.3 mg/kg; read-out: AUC0-24 h
ENDPOINT LABEL: AUC(0-t) (ng·h/mL)
Write it as a number; the unit ng·h/mL goes unstated.

Requested field: AUC(0-t). Item: C[C@]12CC[C@@H]3c4ccc(CCBr)cc4CC[C@H]3[C@@H]1C[C@H](Cc1cccc(C(N)=O)c1)[C@@H]2O [Compound V]
1150

* * *

# MEASURED ON: 17β-HSD3 (Homo sapiens, UniProt P37058)
# Construct: expressed in transfected cells; host or cells: HEK-293 (homogenate)
# Sequence (P37058 whole entry): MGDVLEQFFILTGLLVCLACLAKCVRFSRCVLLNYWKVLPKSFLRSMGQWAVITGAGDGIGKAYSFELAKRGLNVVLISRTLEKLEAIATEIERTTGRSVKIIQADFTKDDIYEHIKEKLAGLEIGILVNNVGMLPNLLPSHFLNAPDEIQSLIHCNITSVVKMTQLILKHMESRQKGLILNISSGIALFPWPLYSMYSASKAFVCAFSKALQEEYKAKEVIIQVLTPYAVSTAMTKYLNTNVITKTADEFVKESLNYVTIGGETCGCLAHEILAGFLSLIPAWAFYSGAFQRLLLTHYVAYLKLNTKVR
# TEST DETAILS: Inhibition of 17β-HSD3 in intact HEK-293 cells
# Format: cell-based
# SETTINGS: HEK293, 1 h, Table 2 (17β-HSD3); 0.1 μM; read-out: Intact cells (%) (0.1 μM)
ENDPOINT LABEL: inhibition at 0.1 µM (%)
Write it as a number; the unit % goes unstated.

Requested field: inhibition at 0.1 µM. Item: `CN1CCN(C[C@@]2(O)CC[C@@]3(C)[C@@H](CC[C@@H]4[C@@H]3CC[C@]3(C)C(=O)CC[C@@H]43)C2)CC1`
2

// same read-out, input: `CN(Cc1ccccc1)C[C@@]1(O)CC[C@@]2(C)[C@@H](CC[C@@H]3[C@@H]2CC[C@]2(C)C(=O)CC[C@@H]32)C1`
48

// same read-out, input: `CCN(Cc1ccccc1)C[C@@]1(O)CC[C@@]2(C)[C@@H](CC[C@@H]3[C@@H]2CC[C@]2(C)C(=O)CC[C@@H]32)C1`
86

// same read-out, input: `CCCCN(CCCC)C[C@@]1(O)CC[C@@]2(C)[C@@H](CC[C@@H]3[C@@H]2CC[C@]2(C)C(=O)CC[C@@H]32)C1`
53

* * *

# MEASURED ON: 17β-HSD3 (Homo sapiens)
# Construct: expressed in transfected cells; host or cells: HEK-293 (homogenate)
# TEST DETAILS: Inhibition of 17β-HSD3 in homogenated HEK-293 cells
# Assay type: biochemical
# SETTINGS: Table 2 (17β-HSD3); 1 μM; read-out: Homo (%) (1 μM)
ENDPOINT LABEL: inhibition at 1 µM (%)
Write it as a number; the unit % goes unstated.

Example entries and their recorded answers appear below.
> print(dat)
                            compound.smiles      endpoint.label  recorded.number
1  CN(Cc1ccccc1)C[C@@]1(O)CC[C@@]2(C)[C@@H](CC[C@@H]3[C@@H]2CC[C@]2(C)C(=O)CC[C@@H]32)C1  inhibition at 1 µM               89
2  C[C@]12CC[C@](O)(CN3CCC(N4CCCCC4)CC3)C[C@@H]1CC[C@@H]1[C@@H]2CC[C@]2(C)C(=O)CC[C@@H]12  inhibition at 1 µM               69

Fill in the recorded inhibition at 1 µM for this compound, with 17β-HSD3 (Homo sapiens) as test system: `CCN(Cc1ccccc1)C[C@@]1(O)CC[C@@]2(C)[C@@H](CC[C@@H]3[C@@H]2CC[C@]2(C)C(=O)CC[C@@H]32)C1`
90

// same read-out, input: `CCCCN(CCCC)C[C@@]1(O)CC[C@@]2(C)[C@@H](CC[C@@H]3[C@@H]2CC[C@]2(C)C(=O)CC[C@@H]32)C1`
85

// same read-out, input: `CCN(CC)C[C@@]1(O)CC[C@@]2(C)[C@@H](CC[C@@H]3[C@@H]2CC[C@]2(C)C(=O)CC[C@@H]32)C1`
60

// same read-out, input: `CN1CCN(C[C@@]2(O)CC[C@@]3(C)[C@@H](CC[C@@H]4[C@@H]3CC[C@]3(C)C(=O)CC[C@@H]43)C2)CC1`
40
